# Tested on: U2OS
# Assay Notes: Multiplex assay against U2OS
# Assay type: toxicity, cell-based
# Study Conditions: human, 12 h, 1 µM, compound concentration 1 uM, replicate 2
Metric Name: Population Hoechst High Intensity Objects (%)
The answer is to be given in %; state only the numeric part.

Worked set:
CN(C)C/C=C/C(=O)Nc1ccc(C(=O)N2CCCC(Nc3ncc(Cl)c(-c4c[nH]c5ccccc45)n3)C2)cc1 (stereo unspecified)	0
O=C(NCCNCC(O)COc1ccc(O)cc1)N1CCOCC1.O=C(NCCNCC(O)COc1ccc(O)cc1)N1CCOCC1.O=C(O)/C=C/C(=O)O (stereo unspecified) [XAMOTEROL FUMARATE]	3
C=CCN1C[C@H](C(=O)N(CCCN(C)C)C(=O)NCC)C[C@@H]2c3cccc4[nH]cc(c34)C[C@H]21	3
Nc1nc(CC(=O)Nc2ccc(CCNC[C@H](O)c3ccccc3)cc2)cs1	0
Cc1sc2c(c1C)C(c1ccc(Cl)cc1)=N[C@H](CC(=O)OC(C)(C)C)c1nnc(C)n1-2	4

Consider the record given below.
Please provide the recorded Population Hoechst High Intensity Objects (%) for CC(C)C[C@H](CO)Nc1nc(S[C@@H](C)c2ccccc2)nc2nc(N)sc12 , tested on U2OS. 0

====

# Tested on: Fibroblast
# Assay Notes: Multiplex assay against human fibroblast
# Assay type: toxicity, cell-based
# Study Conditions: 12 h, 10 µM, compound concentration 10 uM, replicate 1
Non-standard residues stand in square brackets, D forms with d. Residues, ends and D or L forms follow the SMILES beside them.
Response field label takes 1 when Population Fragmented Nuclei (%) is strictly below 20% and -1 in all other cases.

Please review the following examples before continuing.
Nc1nc(-c2ccco2)c2cnn(Cc3ccccc3F)c2n1	1
Cc1cc(O)c(-c2ccc([C@@H](C)CN(C)C)cc2)c2c1[nH]c(=O)c1sccc12	1

Criterion: Population Fragmented Nuclei (%) strictly below 20%. Is it met by CC(C)(O)C(=O)N1CCN(c2ccc(C(F)(F)F)c(C3=C(c4c[nH]c5ccccc45)C(=O)NC3=O)c2)CC1 ? 1

Criterion: Population Fragmented Nuclei (%) strictly below 20%. Is it met by S=C(NCCCc1c[nH]cn1)NCCCN(Cc1ccc(Cl)c(Cl)c1)c1ccc(Br)cn1 ? -1

Criterion: Population Fragmented Nuclei (%) strictly below 20%. Is it met by O=C(NCCNCC(O)COc1ccc(O)cc1)N1CCOCC1.O=C(NCCNCC(O)COc1ccc(O)cc1)N1CCOCC1.O=C(O)/C=C/C(=O)O (stereo not drawn) [XAMOTEROL FUMARATE] ? -1

Criterion: Population Fragmented Nuclei (%) strictly below 20%. Is it met by COc1cc(C(=O)N2CC[C@@H](O)[C@@H](N)C2)cc2nc(-c3cc4ccccc4n3CC3CC3)n(C)c12.Cl ? -1

Criterion: Population Fragmented Nuclei (%) strictly below 20%. Is it met by CC(C)C[C@@H]1NC(=O)[C@@H](C(C)C)NC(=O)[C@@H]2CCCN2C(=O)[C@@H](CC(=O)O)NC(=O)[C@@H](Cc2c[nH]c3ccccc23)NC1=O [BQ-123] (cyclo(L[dW][dD]P[dV])) ? 1

Criterion: Population Fragmented Nuclei (%) strictly below 20%. Is it met by CN1CCN2c3ccccc3Cc3ccccc3C2C1.Cl (stereo not drawn) [MIANSERIN HYDROCHLORIDE] ? 1

====

# Test system: HEK-293T
# Assay Notes: Multiplex assay against HEK293T
# Type: toxicity, cell-based
# Study Conditions: human, 12 h, 10 µM, compound concentration 10 uM, replicate 1
Metric Name: Population Fragmented Nuclei (%)
The answer is to be given in %; state only the numeric part.

So what's the measured Population Fragmented Nuclei (%) for this one? Cc1cc(=O)n(C)c2cc(N3C(=O)CC[C@H](NS(=O)(=O)CC(C)C)[C@H]3c3ccc(Cl)cc3)ccc12 4

So what's the measured Population Fragmented Nuclei (%) for this one? Cc1ccc(OCC(O)C(C)NC(C)C)c2c1CCC2.Cl (stereo unspecified) 7

====

# Test system: HEK-293T
# Assay Notes: Multiplex assay against HEK293T
# Format: toxicity, cell-based
# Study Conditions: human, 24 h, 1 µM, compound concentration 1 uM, replicate 1
Non-standard residues stand in square brackets, D forms with d. Residues, ends and D or L forms follow the SMILES beside them.
Here, each record is paired with measured Population Apoptotic (%) data.
The answer is to be given in %; state only the numeric part.

Worked set:
Cl.Cl.OCCOCCN1CCN(C(c2ccccc2)c2ccc(Cl)cc2)CC1 (centres undefined) [HYDROXYZINE HYDROCHLORIDE]	22
CCCCCCNC(=O)Nc1ccc(S(=O)(=O)Nc2ccc(CCNC[C@H](O)COc3ccc(O)cc3)cc2)cc1	19
COc1cc(OC2CCN(C(C)=O)CC2)ccc1C(=O)N1CCC(N2C(=O)OCc3ccccc32)CC1	28

Consider the record given below.
So what's the measured Population Apoptotic (%) for this one? CC(C)C[C@@H]1NC(=O)[C@@H](C(C)C)NC(=O)[C@@H]2CCCN2C(=O)[C@@H](CC(=O)O)NC(=O)[C@@H](Cc2c[nH]c3ccccc23)NC1=O [BQ-123] (cyclo(L[dW][dD]P[dV])) 26

====

Here, each record is paired with measured Total Cell Count data.
# System: Fibroblast
# Assay Notes: Multiplex assay against human fibroblast
# Type: toxicity, cell-based
# Study Conditions: 24 h, 10 µM, compound concentration 10 uM, replicate 1
No unit in the answer, only the number.

Worked set:
Cc1cc(NC(=O)NCCN2CCC(O)(Cc3ccccc3)CC2)c2ccccc2n1	178
CCC(=O)OCC(=O)[C@@]1(OC(=O)CC)[C@@H](C)C[C@H]2[C@@H]3CCC4=CC(=O)C=C[C@]4(C)[C@@]3(Cl)[C@@H](O)C[C@@]21C [BECLOMETHASONE DIPROPIONATE]	148
O=c1nc2[nH]c3ccccc3nc-2c(=O)[nH]1	153
C[C@H](NC(=O)CNC(=O)c1cccc(Cl)c1)c1ccccc1	107
O=C(O)CCC/C=C\CC1C(O)CC(O)C1/C=C/C(O)COc1cccc(Cl)c1 (stereo not drawn)	218
S=C(NCCCc1c[nH]cn1)NCCCN(Cc1ccc(Cl)c(Cl)c1)c1ccc(Br)cn1	214
COc1c(Nc2ccc(S(C)(=O)=O)nc2C)ncnc1OC1CCN(C(=O)OC(C)C)CC1	131
CN1CCN(c2ccc(Nc3c4ccccc4nc4ccccc34)cc2)CC1.Cl.Cl.O	206
Cc1cc(O)c(-c2ccc([C@@H](C)CN(C)C)cc2)c2c1[nH]c(=O)c1sccc12	122
Nc1nc(CC(=O)Nc2ccc(CCNC[C@H](O)c3ccccc3)cc2)cs1	181

So what's the measured Total Cell Count for this one? COCCn1c(C)c(C)s/c1=N\C(=O)C1C(C)(C)C1(C)C 154

So what's the measured Total Cell Count for this one? COC(c1ccccc1)(c1ccccc1)[C@H](Oc1nc(C)cc(C)n1)C(=O)O 149

So what's the measured Total Cell Count for this one? COc1cc(C(=O)N2CC[C@@H](O)[C@@H](N)C2)cc2nc(-c3cc4ccccc4n3CC3CC3)n(C)c12.Cl 274

So what's the measured Total Cell Count for this one? O=C(Nc1cc(-c2ccccc2)nn1-c1ccccc1F)c1ccc([N+](=O)[O-])cc1 163

So what's the measured Total Cell Count for this one? CCCCCCNC(=O)Nc1ccc(S(=O)(=O)Nc2ccc(CCNC[C@H](O)COc3ccc(O)cc3)cc2)cc1 232

So what's the measured Total Cell Count for this one? CN(C)C(=O)Cn1cc(-c2ccc(-c3nnc4ccccn34)cc2)cn1 140

So what's the measured Total Cell Count for this one? CC(C)(O)C(=O)N1CCN(c2ccc(C(F)(F)F)c(C3=C(c4c[nH]c5ccccc45)C(=O)NC3=O)c2)CC1 131

So what's the measured Total Cell Count for this one? N[C@](CC1c2ccccc2Oc2ccccc21)(C(=O)O)[C@H]1C[C@@H]1C(=O)O 193

====

# Test system: U2OS
# Assay Notes: Multiplex assay against U2OS
# Format: toxicity, cell-based
# Study Conditions: human, 12 h, 10 µM, compound concentration 10 uM, replicate 1
Decide using Population Hoechst High Intensity Objects (%): a value greater than or equal to 2% is 1, a smaller one is -1.

Please review the following examples before continuing.
COCCCN1CCC(NC(=O)c2cc(Cl)c(N)c3c2OCC3)CC1 [PRUCALOPRIDE]	1
CN1CCN(c2ccc(Nc3c4ccccc4nc4ccccc34)cc2)CC1.Cl.Cl.O	-1
Cc1cc(NC(=O)NCCN2CCC(O)(Cc3ccccc3)CC2)c2ccccc2n1	1

Kindly determine if Population Hoechst High Intensity Objects (%) recorded for CC(C)(C)c1ccc(CSc2cnn(C(C)(C)C)c(=O)c2Cl)cc1 is above or exactly 2%. -1

Kindly determine if Population Hoechst High Intensity Objects (%) recorded for CN(C)C(=O)Cn1cc(-c2ccc(-c3nnc4ccccn34)cc2)cn1 is above or exactly 2%. -1

Kindly determine if Population Hoechst High Intensity Objects (%) recorded for CCC(=O)OCC(=O)[C@@]1(OC(=O)CC)[C@@H](C)C[C@H]2[C@@H]3CCC4=CC(=O)C=C[C@]4(C)[C@@]3(Cl)[C@@H](O)C[C@@]21C [BECLOMETHASONE DIPROPIONATE] is above or exactly 2%. 1

Kindly determine if Population Hoechst High Intensity Objects (%) recorded for O=C(NCCNCC(O)COc1ccc(O)cc1)N1CCOCC1.O=C(NCCNCC(O)COc1ccc(O)cc1)N1CCOCC1.O=C(O)/C=C/C(=O)O (centres undefined) [XAMOTEROL FUMARATE] is above or exactly 2%. -1
